System: NEC8;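 note: growth inhibition of human NEC8 cells, read out by a cell viability assay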
Test: cells
Format: functional, cell-based, Homo sapiens
Details: nec8
Description: SANGER: Inhibition of human NEC8 cell growth in a cell viability assay.
measured_property: IC50 (nM)

>>> value_reported("CISPLATIN")
2520
>>> value_reported("BLEOMYCIN")
26.9

---

System: H4
Assay: cells
Assay type: functional, cell-based, Homo sapiens
Details: Homo sapiens, H4
Description: SANGER: Inhibition of human H4 cell growth in a cell viability assay.
pIC50: −log10 of the molar value.
measured_property: pIC50

>>> value_reported("Nc1cccc2c1CN(C1CCC(=O)NC1=O)C2=O (stereo unspecified) [LENALIDOMIDE]")
"< 5.30"
>>> value_reported("Cn1cnc2c(F)c(Nc3ccc(Br)cc3Cl)c(C(=O)NOCCO)cc21 [SELUMETINIB]")
"< 5.40"
>>> value_reported("CC(C)c1ccccc1Cc1cc(C(=O)Nc2ccc(S(=O)(=O)c3ccccc3C(C)(C)C)cc2)c(O)c(O)c1O")
6.39
>>> value_reported("Cc1cn(-c2cc(NC(=O)c3ccc(C)c(Nc4nccc(-c5cccnc5)n4)c3)cc(C(F)(F)F)c2)cn1 [NILOTINIB]")
"< 5.70"
>>> value_reported("CC(C)CCN1c2nc(Nc3cc(F)c(O)c(F)c3)ncc2N(C)C(=O)C1C (stereo unspecified)")
5.60
>>> value_reported("O=C(O)c1ccc(-c2c[nH]c3ncc(-c4ccccc4)cc23)cc1C1CCCC1 [GSK-650394]")
"< 4.80"
